Target: T1, Bfl-1, Q16548
T1 chain: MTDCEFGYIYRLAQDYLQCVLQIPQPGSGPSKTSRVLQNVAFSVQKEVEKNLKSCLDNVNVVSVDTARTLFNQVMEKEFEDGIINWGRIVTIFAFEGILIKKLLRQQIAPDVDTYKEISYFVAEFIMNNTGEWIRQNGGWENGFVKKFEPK
Assay: peptide SPOT array, c-Myc-tagged receptor at 1 uM or 100 nM, anti-c-Myc-Cy3
Readout Kind: SPOT signal as a fraction of Bim BH3's signal on the same receptor and array

Solved cases below.
RDASKILVDALQKFADDMYSLYGGNA [ATP6AP2] = 0.02
LFRRRDISSSLNSLADSNAREFEEES [MTA2] = 0.05
DIDEGLYSRQLYVLGHEAMKRLQTSS [UBA1] = 0.09
ALTVKEMAQMLQSFGTELAETELPDD [MCF2] = 0.01
QAGPVSSGLADRKLGDRVQLLNLLVT [CCDC57] = 0.07

a = AGYELLIQKFLSLYGDQIDMHRKFVV [ISOC1]
b = CGEWTRRSLHLRVLLRQLILPTDKGV [FAM149A]
Asked: Select the item whose SPOT signal as a fraction of Bim BH3's signal on the same receptor and array value is smaller, choosing between a and b . Selection: enter the item's label.
Given back: a

1 = NNNMDVESRTMATMGDTLASRGLLDA [SEC16A]
2 = PVESSWIAPELRLQLDDILPLGKDSG [DHX30]
Asked: Compare the recorded SPOT signal as a fraction of Bim BH3's signal on the same receptor and array of 1 and 2 ; state which is larger. Selection: enter the item's label.
Given back: 1
(1: 0.06, 2: 0.04)
